assay: Percentage inhibition against platelet activating factor (2 ng/mL) induced platelet aggregatory activity; format: functional
Param threshold (20%) applies to Inhibition; output TRUE when value >= threshold, FALSE when value < threshold.

Some solved cases for reference:
COc1cccc(C(=O)C2=NCCc3cc(OC)c(OC)cc32)c1; FALSE
COc1cc2ccnc(Cc3cccc(Cl)c3)c2cc1OC; FALSE
COc1cc2ccnc(Cc3ccc(Br)cc3)c2cc1OC; FALSE
COc1ccc(Cc2nccc3cc(OC)c(OC)cc23)cc1; TRUE
CC(=O)Oc1ccccc1C(=O)O [ASPIRIN]; FALSE
COc1cc2c(cc1OC)C(C(=O)c1cccc(Cl)c1)=NCC2; TRUE
COc1cc2ccnc(C(=O)c3ccccc3OC)c2cc1OC; TRUE
COc1cc2ccnc(C(=O)c3ccc(Br)cc3)c2cc1OC; TRUE
COc1cc2c(cc1OC)C(C(=O)c1ccccc1OC)=NCC2; TRUE
COc1cc2ccnc(Cc3cccc(Br)c3)c2cc1OC; TRUE

stdin: # bool: Inhibition of COc1cc2ccnc(C(=O)c3ccccc3Br)c2cc1OC >= 20%
stdout: TRUE

* * *

assay: Percentage inhibition against platelet activating factor (2 ng/mL) induced platelet aggregatory activity; format: functional
Param threshold (20%) applies to Inhibition; output condition met when value >= threshold, condition not met when value < threshold.

COc1cc2ccnc(Cc3ccc(Cl)cc3)c2cc1OC; condition met

stdin: # bool: Inhibition of COc1ccc(C(O)c2nccc3cc(OC)c(OC)cc23)cc1 (stereo unspecified) >= 20%
stdout: condition not met

stdin: # bool: Inhibition of COc1cc2ccnc(Cc3ccccc3Br)c2cc1OC >= 20%
stdout: condition not met

stdin: # bool: Inhibition of COc1cc2ccnc(C(=O)c3cccc(Cl)c3)c2cc1OC >= 20%
stdout: condition met

stdin: # bool: Inhibition of COc1ccc(C(=O)C2=NCCc3cc(OC)c(OC)cc32)cc1 >= 20%
stdout: condition met

* * *

Inhibition by entry:
test: Percentage inhibition against platelet activating factor (2 ng/mL) induced platelet aggregatory activity; type: functional
Respond with the bare value in %.

Here are 4 compounds together with their reported answers.
COc1cc2c(cc1OC)C(C(=O)c1ccccc1Cl)=NCC2; 20
COc1cc2c(cc1OC)C(C(=O)c1ccc(Cl)cc1)=NCC2; 22
COc1cccc(Cc2nccc3cc(OC)c(OC)cc23)c1; 12
COc1cc2ccnc(Cc3ccccc3Cl)c2cc1OC; 13

# evaluate next
stdin: What value of Inhibition has been reported for the following compound? COc1cc2c(cc1OC)C(C(=O)c1ccc(Br)cc1)=NCC2
stdout: 10
